- Tested on: HOP-92 NSCLC
- MEASUREMENT NOTES: NCI tumour cell line growth inhibition, 48 h
In this section, each of the molecules is paired with its reported TGI.
REPORTED ENDPOINT: TGI (µM)

1. O=S(=O)(NCCNc1nccc(-c2c(-c3ccc(F)cc3)nc3sccn23)n1)c1ccccc1; 8.14
2. Cc1ccccc1N=NC(C(=O)c1ccccc1)C(=O)c1ccccc1; 46.4
3. COC1=C2CC(C)CC(OC)C(O)C(C)/C=C(\C)C(OC(N)=O)C(OC)/C=C\C=C(/C)C(=O)NC(=C(/C=N/N3CCCCC3)C1=O)C2=O (stereo not given); 35.4

###

- Test system: A549 NSCLC
- MEASUREMENT NOTES: NCI tumour cell line growth inhibition, 48 h
Here, each record is paired with measured TGI data.
REPORTED ENDPOINT: TGI

1. N#Cc1c(N2CCOCC2)[nH]c(=O)c(C(c2c(Cl)cccc2Cl)c2c(O)c(C#N)c(N3CCOCC3)[nH]c2=O)c1O; > 100 µM
2. Cn1c2ccccc2c(=O)c2[nH]c3ccccc3c21; > 100 µM
3. COc1ccc(Nc2cc(C)nc(N3CCN(c4ccnc5cc(Cl)ccc45)CC3)n2)cc1; > 100 µM
4. CCCC[C@H]1CCN2C[C@@H](O)[C@@H](O)[C@H]2[C@@H]1O; > 100 µM
5. c1ccc(CNc2nc(Nc3ccccc3)nc3ccccc23)cc1; 5.35 µM
6. FC1=C2CCCCCC2SC1(F)F (configuration not stated); > 100 µM
7. O=C1c2ccccc2C(=O)c2oc(Br)cc21; 1.03 µM
8. CC(C)COC(=O)c1ccc2[nH]c(O)c(C=Nc3ccc(S(N)(=O)=O)cc3)c2c1; 5.88 µM
9. CN(C)Cc1cc(N=Nc2ccc(Cl)cc2)ccc1OC(=O)c1ccccc1; 13.6 µM
10. Nn1c(N=Nc2c(O)[nH]c3c(Cl)cc(Cl)cc23)n[nH]c1=S; > 100 µM
11. CN(C)Cc1cc(C(C)(C)C)cc(C2CCCCC2)c1O; 26.5 µM
12. CC(C)C(NC(=O)C(Cc1ccccc1)NC(=O)[C@H]1CCC[C@H]1NC(=O)C(N)Cc1ccc(O)cc1)C(N)=O (some centres not stated); > 100 µM
13. Cc1ccccc1N=NC(C(=O)c1ccccc1)C(=O)c1ccccc1; > 100 µM
14. O=c1ccn(C2OC(CN(O)CCC3C(CO)OC(n4ccc(=O)[nH]c4=O)C3O)C(O)C2O)c(=O)[nH]1 (configuration not stated); > 100 µM
15. CC1=NN=C(N)NC1=CC(Sc1ccc(Cl)cc1)c1c(O)ccc2ccccc12 (configuration not stated); > 92.9 µM
16. CCCCCCC(/C=N/O)C(C)(O)CCC (configuration not stated); > 100 µM
17. O=C(Nc1ccc(Cl)c(Cl)c1)OCCN1c2ccccc2Sc2ccccc21; > 10 µM

###

Listed molecules paired with reported TGI
- System: TK-10 renal
- MEASUREMENT NOTES: NCI tumour cell line growth inhibition, 48 h
REPORTED ENDPOINT: TGI

1) CN(C)Cc1cc(C(C)(C)C)cc(C2CCCCC2)c1O; 29.1 µM
2) O=C(O)CCSC(=O)Nc1ccc(N=Nc2ccccc2)cc1; > 100 µM
3) COc1ccc(-c2nn(-c3cccc(NC(=O)c4ccc(N5CCOCC5)c(C(F)(F)F)c4)c3)cc2-c2ccncc2)cc1Cl; > 50 µM
4) Nc1ccc([C@H]2C(=O)N[C@H]3CCC[C@H]32)cc1; > 100 µM
5) O=C(N/N=C\C(F)(F)F)c1ccncc1; > 100 µM
6) O=C(CSC1=NNC2(C(=O)N1)c1ccccc1-c1ccccc12)NC(=S)Nc1ccccc1; > 10 µM
7) COC(=O)C1=CC2OC1(C)CCC2=O (centres undefined); > 100 µM
8) O=C1C=CC(O)C2C1CC13SSC4(CC5C(=O)C=CC(O)C5N4C1=O)C(=O)N23 (centres undefined); 1.81 µM
9) COC(=O)c1c(-c2ccccc2)c2sc3ccccc3n2c1N; > 100 µM
10) CC1=CC(=O)N(c2c(C)cccc2Cl)C(C)N1 (centres undefined); > 100 µM
11) Cc1cc2c(C)n(Cc3ccc(Cl)cc3Cl)nc2c(C(=O)O)c1C; > 100 µM
12) COc1ccc(C(=O)Nc2ccc3oc(-c4ccccc4)nc3c2)cc1; > 100 µM
13) Cc1ccc2c(=O)cc(-c3sc4ccccc4c3C)[nH]c2n1; > 100 µM
14) NCCSCCc1ccccc1; > 100 µM
15) N#CC(C#N)=Cn1c(=S)[nH]c2ccccc21; > 100 µM
16) Cc1cccc2c(=O)c3cccc([C@@H](C)C(=O)O)c3oc12; > 100 µM
17) Cc1cc(N(CCC#N)CCC#N)ccc1C=Nc1ccc(C(=O)NN2C(=O)/C(=C/c3ccc(N(CCC#N)CCC#N)cc3)N=C2c2cc([N+](=O)[O-])ccc2Cl)cc1; > 100 µM
18) C=CCCCc1ccc(C(O)CCCCCCCCCCCC)o1 (centres undefined); 38.3 µM
19) CCN(CC)CCOc1ccc(C(=O)/C=C\c2ccc(Cl)cc2Cl)cc1; 29.2 µM

###

- System: M14 melanoma
- MEASUREMENT NOTES: NCI tumour cell line growth inhibition, 48 h
Each entry below lists one item and its recorded TGI value.
REPORTED ENDPOINT: TGI

1) COc1ccc(CCc2nccn2C)cc1OC; > 100 µM
2) C=C1[C@@H]([C@@]2(C)C=CC(=O)C(C)(C)[C@@H]2CC(=O)OC)CC[C@@]2(C)C(c3ccoc3)OC(=O)[C@H]3O[C@]132 (some centres not stated); > 100 µM
3) c1ccc(CC2(c3cc4ccccc4[nH]3)OCCO2)nc1; > 100 µM
4) O=c1ccn(C2OC(CN(O)CCC3C(CO)OC(n4ccc(=O)[nH]c4=O)C3O)C(O)C2O)c(=O)[nH]1 (configuration not stated); > 100 µM
5) CC[C@@H]1/C=C/C=C/C[C@H](C)[C@@H](O)[C@](C)(O)C(=O)[C@H](C)[C@@H](O)[C@H](C)C(=O)[C@H](C)[C@@H](O)[C@H](C)/C=C/C(=O)O[C@H]2[C@@H](C)[C@@H](CC1)O[C@@]1(CC[C@@H](C)[C@@H](CC(C)O)O1)[C@@H]2C (some centres not stated); 6.52 µM
6) Cc1c(Sc2ccccc2)[n+](=O)c2cc(Cl)c(Cl)cc2n1[O-]; > 100 µM
7) CCN(CC)CCN(C(=O)c1ccc(F)cc1)c1ccccc1N; > 10 µM
8) O=C1OC(CN2CCOCC2)CN1/N=C/c1ccc([N+](=O)[O-])o1 (configuration not stated); 45.6 µM
9) CCOP(=O)(OCC)/C(C#N)=C/c1c[nH]c2ccccc12; > 100 µM
10) O=C(O)c1ccccc1NC(=O)C1CCCCC1; > 100 µM
11) COc1cc(C2C(Cl)C(=O)N2NC(=O)c2ccc(NC(C)=O)cc2OC)ccc1O (configuration not stated); 33.9 µM
12) Cc1ccc2c(=O)cc(-c3sc4ccccc4c3C)[nH]c2n1; 51 µM
13) CCCCCCC(/C=N/O)C(C)(O)CCC (configuration not stated); > 100 µM
14) COP(=O)(OC)/C(=C\c1cn(C(c2ccccc2)(c2ccccc2)c2ccccc2)cn1)NC(C)=O; > 100 µM
15) CN1C(=O)C2C=C3CCCCC3=CC2N(C)C1=O (configuration not stated); > 100 µM
16) Cc1ccccc1-n1c(C)nc(-c2ccccc2)cc1=O; > 100 µM
17) N#Cc1cc(S(=O)(=O)Nc2nc3ccccc3s2)c(SCc2ccccc2)cc1Cl; 37.1 µM

###

- Tested on: SK-MEL-28 melanoma
- MEASUREMENT NOTES: NCI tumour cell line growth inhibition, 48 h
# reported TGI; entries follow
REPORTED ENDPOINT: TGI

1. CC1=C(C(=O)Nc2ccc([N+](=O)[O-])cc2)C(c2ccccc2F)C(C(=O)Nc2ccc([N+](=O)[O-])cc2)=C(C)N1; > 100 µM
2. CCC1CN2CCC3(c4ccccc4)CC(C(=O)OC)=CC1C23 (configuration not stated); 31.5 µM
3. Cc1cc(Cl)ccc1C1OC(=O)c2c1ccc1ccccc21 (configuration not stated); > 100 µM
4. c1ccc2c(c1)C1=NCCN1c1ccccc1-2; 15.2 µM
5. CC1=CC(=O)N(c2c(C)cccc2Cl)C(C)N1 (configuration not stated); > 100 µM
6. CN1C(=O)C2C=C3CCCCC3=CC2N(C)C1=O (configuration not stated); > 100 µM
7. COCCOC(=O)C(C)=[N+]=[N-]; > 100 µM

###

- Tested on: HS 578T breast
- MEASUREMENT NOTES: NCI tumour cell line growth inhibition, 48 h
Quick list: TGI per entry.
REPORTED ENDPOINT: TGI (µM)

1. CC1=C(C(=O)OC(C)C)C(c2ccccc2C(F)(F)F)C(C(=O)OC(CO[N+](=O)[O-])CO[N+](=O)[O-])=C(C)N1 (centres undefined); 49.8
2. C/C=C/[C@H](O[Si](C)(C)C(C)(C)C)[C@@H](O)/C=C/C(=O)OCC; 79.5
